# ASSAY INFO: PSAC antagonists in infected red cells, primary screen, cell-based, P. falciparum Indochina, OD700, 18 h (AID 1157)
# CONDITION LABEL: P. falciparum Indochina infected erythrocytes, osmotic lysis OD700, 18 h; higher = more signal, called active from +8 up or from −8 down
RESULT TYPE: z-score

CC(C)CNC(=O)[C@@H]1c2ccccc2C(=O)N(C(C)C)[C@H]1c1ccc(CO)cc1 = -0.779
NC(=O)N1C(=O)C2C(C1=O)C1C=C(CCCO)C2C(c2ccc(CN3CCCC3)cc2)N1Cc1cccc(OC(F)(F)F)c1 (stereo not given) = 0.208
COc1cc2c(cc1O)C(c1ccc(CN3CCCC3)cc1)N(Cc1cccc(OC(F)(F)F)c1)CC2 (stereo not given) = 1.14
O=C1C2C=CC(C(O)c3cccs3)N(Nc3ccccc3)C2C(=O)N1c1ccccc1 (stereo not given) = -0.423
CN(C)CCCCNC(=O)[C@H]1C[C@H]2C(=O)N[C@@H](Cc3ccccc3)C(=O)N2[C@H]1c1cccc(OCCO)c1 = -1.43
[N-]=[N+]=Nc1ccccc1[C@@H]1OC(c2ccc(OCCCO)cc2)=N[C@]1(Cc1ccccc1)C(N)=O = 3.17
Cc1ccc(S[C@]2(C(=O)NCCCN(C)C)CC(=O)N(Cc3ccccc3Cl)[C@@H]2c2ccc(CO)cc2I)cc1 = 0.498
CCC[C@@H]1[C@@H](Sc2ccccc2)[C@@H](C(=O)O)[C@H](c2ccc(C)cc2)N1S(=O)(=O)c1ccc(C)cc1 = 1
C/C=C/CN(C(=O)C#Cc1ccccc1)[C@H](CO[Si](C)(C)C(C)(C)C)c1ccccc1 = -1.83
C=CCNC(=O)[C@H]1[C@@H]2C(=O)O[C@@H](c3ccccc3)[C@@H](c3ccccc3)N2[C@@H](c2ccccc2OCCO)[C@]12C(=O)N(C(=O)OCCOC)c1ccccc12 = 0.973
[N-]=[N+]=NCc1ccccc1C[C@]1(C(=O)NCc2ccccc2)N=C(c2ccc(OCCCO)cc2)O[C@H]1c1ccccc1CN=[N+]=[N-] = 0.936
COCC(=C=CC[C@@H](O)c1ccc(OCCO)cc1)C[C@@H](O)COCc1ccccc1 = -0.756
CCCCNC(=O)c1ccc(C#C[Si](C)(C)C)c(OC(C)=O)c1 = 0.672
COCCOC(=O)N1C(=O)[C@@]2(c3cc(C#CCCO)ccc31)[C@H](c1ccccc1OCCO)N1[C@H](c3ccccc3)[C@H](c3ccccc3)OC(=O)[C@H]1[C@@H]2C(=O)N1CCc2cc(OC)c(OC)cc2C1 = 1.12
O=C1C2C=CC(C(O)C(c3ccccc3)c3ccccc3)N(Nc3ccccc3)C2C(=O)N1c1ccccc1 (stereo not given) = 1.41
CC(C)CNC(=O)[C@@]1(C)c2ccccc2C(=O)N(Cc2cc(F)cc(C(F)(F)F)c2)[C@H]1c1ccc(CO)cc1 = 0.253
Cc1ccc(F)cc1S(=O)(=O)N[C@@H]1CCN(Cc2ccc3[nH]ccc3c2)C1 = 0.673
CCCCC(=C=CC[C@@H](O)c1cccc(OCCO)c1)CCO = 0.528
COC(=O)[C@@]1(Cc2ccc(F)cc2)[C@H]2c3cc(C(=O)N(C)C)n(CCN4CCOCC4)c3C[C@H]2CN1C(=O)c1ccccc1 = -1.9
CN1C(=O)[C@]2(CCC(=O)OC(C)(C)C)N=C(c3ccc(OCCCO)cc3)O[C@@H]2c2ccccc21 = 2.68
CN1C(=O)[C@]2(CCS(=O)(=O)c3ccccc3)N=C(c3ccc(OCCCO)cc3)O[C@@H]2c2ccccc21 = 1.87
CCCCC(O)C1C=CC2C(=O)N(C)C(=O)C2N1Nc1ccccc1 (stereo not given) = 1.17
Cc1ccc(S(=O)(=O)N2[C@@H](c3ccccc3)C(C(=O)O)=CC[C@H]2c2ccc(C#N)cc2)cc1 = 0.559
C=CC[C@]1(C(=O)NCCCOC)N=C(c2ccc(OCCCO)cc2)O[C@H]1c1ccccc1 = 0.643
Cc1ccc(F)cc1S(=O)(=O)N[C@@H]1CCN(Cc2ccc3c(c2)OCO3)C1 = 0.329
CO[C@H]1O[C@H](CO)[C@@H](OC(=O)Nc2ccc3c(c2)OCO3)[C@@H]2OC(=O)[C@@H](Cc3ccccc3)C/C=C/C[C@H](Cc3ccccc3)C(=O)O[C@@H]12 = 1.09
C=CCC(OC(C)=O)[C@@H]1[C@@H](N(Cc2cccc3ccccc23)C(=O)c2cccc3ccccc23)c2cc(OCCCO)ccc2N1C(=O)Cc1ccc2ccccc2c1 (stereo not given in full) = 0.334
C=CCN1C(=O)[C@]2(O[C@H](CCn3cc([C@H](O)c4ccccc4)nn3)[C@@H]([Si](C)(C)c3ccc(OC)cc3)[C@@H]2C)c2cc(N3C(=O)c4cccc5cccc3c45)ccc21 = 0.889
[N-]=[N+]=NCc1ccccc1[C@H]1OC(c2ccc(OCCCO)cc2)=N[C@@]1(Cc1ccccc1)C(=O)N1CCOCC1 = 2.24
C=CCC(OC(C)=O)[C@@H]1[C@@H](N(Cc2ccc(-c3cccc(C(F)(F)F)c3)o2)C(=O)Cc2ccc(F)cc2)c2cc(OCCCO)ccc2N1C(=O)c1ccc2ccccc2c1 (stereo not given in full) = 0.161
